Target: CYP3A4 (Homo sapiens, UniProt P08684)
Sequence (P08684 whole entry, canonical isoform): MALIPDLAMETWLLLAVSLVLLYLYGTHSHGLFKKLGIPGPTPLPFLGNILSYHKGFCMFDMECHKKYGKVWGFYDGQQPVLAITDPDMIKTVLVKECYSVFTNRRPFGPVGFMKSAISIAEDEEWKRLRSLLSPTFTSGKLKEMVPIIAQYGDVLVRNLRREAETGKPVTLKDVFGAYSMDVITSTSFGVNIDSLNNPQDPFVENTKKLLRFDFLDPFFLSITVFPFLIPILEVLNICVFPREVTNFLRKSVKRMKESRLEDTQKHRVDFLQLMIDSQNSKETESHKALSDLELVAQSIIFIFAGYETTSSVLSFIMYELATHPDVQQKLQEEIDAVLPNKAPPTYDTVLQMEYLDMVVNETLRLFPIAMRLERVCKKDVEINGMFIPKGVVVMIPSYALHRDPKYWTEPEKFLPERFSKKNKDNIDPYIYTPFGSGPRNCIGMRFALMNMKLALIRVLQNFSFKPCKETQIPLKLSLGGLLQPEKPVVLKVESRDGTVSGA
Assay: CYP inhibition assay, recombinant isoform, fluorescence
Type: biochemical
Conditions: human
Experimental: The CYP inhibition assay was performed for test/control inhibitor items in duplicates using a 96-well fluorescence plate. An example of the preparation of CYP inhibition is given below in Table 8. The plate with CYP master premix with test/control was incubated to allow the test/control samples to interact with CYP enzyme for 10 ± 1 min at 25°C under shaking conditions (400 rpm) using Thermomixer. […]
Where a SMILES comes first, the peptide text is derived from it. [ ]: non-standard residue; d: D form. The star is where a group is joined. d(aIle) = CC[C@H](C)[C@@H](N)C(=O)O; X1 = CC[C@H](C)CCCCC(=O)*; dDab = NCC[C@@H](N)C(=O)O; Dab = NCC[C@H](N)C(=O)O
reported-metric: inhibition at 25 min, 0.3 µM

Query: Reported inhibition at 25 min, 0.3 µM, molecule CC[C@H](C)CCCCC(=O)NCC(=O)N[C@H](CCN)C(=O)NCC(=O)N[C@H](CO)C(=O)N[C@H](Cc1c[nH]c2ccccc12)C(=O)N[C@@H](CO)C(=O)N[C@@H](CCN)C(=O)N[C@H](CCN)C(=O)N[C@H](C(=O)N[C@@H](CCC(=O)O)C(=O)N[C@H](C(=O)N[C@@H](C(=O)N[C@@H](CO)C(=O)O)[C@@H](C)CC)[C@@H](C)CC)[C@@H](C)CC [Tridecaptin M, tridecaptin M] (X1-G[dDab]G[dS][dW]S[Dab][dDab]IEI[d(aIle)]S-OH) : ____
Response: < 0%

* * *

Target: CYP2D6 (Homo sapiens)
Sequence (P10635 whole entry, canonical isoform): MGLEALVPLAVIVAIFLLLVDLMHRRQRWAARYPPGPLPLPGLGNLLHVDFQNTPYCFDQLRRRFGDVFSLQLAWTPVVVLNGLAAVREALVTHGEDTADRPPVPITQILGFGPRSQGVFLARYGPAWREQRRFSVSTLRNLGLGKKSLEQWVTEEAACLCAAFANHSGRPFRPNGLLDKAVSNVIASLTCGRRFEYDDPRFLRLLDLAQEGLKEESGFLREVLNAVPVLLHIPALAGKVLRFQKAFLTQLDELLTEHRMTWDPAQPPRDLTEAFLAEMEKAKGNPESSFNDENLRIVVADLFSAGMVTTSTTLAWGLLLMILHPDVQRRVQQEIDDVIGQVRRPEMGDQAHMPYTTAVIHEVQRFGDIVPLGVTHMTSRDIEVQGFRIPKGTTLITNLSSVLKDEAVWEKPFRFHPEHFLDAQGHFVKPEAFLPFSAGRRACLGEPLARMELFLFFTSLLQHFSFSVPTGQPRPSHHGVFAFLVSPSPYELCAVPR
Experiment: CYP inhibition assay, recombinant isoform, fluorescence
Assay type: biochemical
Conditions: human
Where a SMILES comes first, the peptide text is derived from it. [ ]: non-standard residue; d: D form. The star is where a group is joined. d(aIle) = CC[C@H](C)[C@@H](N)C(=O)O; X1 = CC[C@H](C)CCCCC(=O)*; dDab = NCC[C@@H](N)C(=O)O; Dab = NCC[C@H](N)C(=O)O
reported-metric: inhibition at 25 min, 10 µM

Query: Which inhibition at 25 min, 10 µM value belongs to CC[C@H](C)CCCCC(=O)NCC(=O)N[C@H](CCN)C(=O)NCC(=O)N[C@H](CO)C(=O)N[C@H](Cc1c[nH]c2ccccc12)C(=O)N[C@@H](CO)C(=O)N[C@@H](CCN)C(=O)N[C@H](CCN)C(=O)N[C@H](C(=O)N[C@@H](CCC(=O)O)C(=O)N[C@H](C(=O)N[C@@H](C(=O)N[C@@H](CO)C(=O)O)[C@@H](C)CC)[C@@H](C)CC)[C@@H](C)CC [Tridecaptin M, tridecaptin M] (X1-G[dDab]G[dS][dW]S[Dab][dDab]IEI[d(aIle)]S-OH) ?
Response: 10.9%

* * *

Target: hERG channel (Homo sapiens)
Construct: expressed in transfected cells; host or cells: HEK293
Sequence (Q12809 whole entry): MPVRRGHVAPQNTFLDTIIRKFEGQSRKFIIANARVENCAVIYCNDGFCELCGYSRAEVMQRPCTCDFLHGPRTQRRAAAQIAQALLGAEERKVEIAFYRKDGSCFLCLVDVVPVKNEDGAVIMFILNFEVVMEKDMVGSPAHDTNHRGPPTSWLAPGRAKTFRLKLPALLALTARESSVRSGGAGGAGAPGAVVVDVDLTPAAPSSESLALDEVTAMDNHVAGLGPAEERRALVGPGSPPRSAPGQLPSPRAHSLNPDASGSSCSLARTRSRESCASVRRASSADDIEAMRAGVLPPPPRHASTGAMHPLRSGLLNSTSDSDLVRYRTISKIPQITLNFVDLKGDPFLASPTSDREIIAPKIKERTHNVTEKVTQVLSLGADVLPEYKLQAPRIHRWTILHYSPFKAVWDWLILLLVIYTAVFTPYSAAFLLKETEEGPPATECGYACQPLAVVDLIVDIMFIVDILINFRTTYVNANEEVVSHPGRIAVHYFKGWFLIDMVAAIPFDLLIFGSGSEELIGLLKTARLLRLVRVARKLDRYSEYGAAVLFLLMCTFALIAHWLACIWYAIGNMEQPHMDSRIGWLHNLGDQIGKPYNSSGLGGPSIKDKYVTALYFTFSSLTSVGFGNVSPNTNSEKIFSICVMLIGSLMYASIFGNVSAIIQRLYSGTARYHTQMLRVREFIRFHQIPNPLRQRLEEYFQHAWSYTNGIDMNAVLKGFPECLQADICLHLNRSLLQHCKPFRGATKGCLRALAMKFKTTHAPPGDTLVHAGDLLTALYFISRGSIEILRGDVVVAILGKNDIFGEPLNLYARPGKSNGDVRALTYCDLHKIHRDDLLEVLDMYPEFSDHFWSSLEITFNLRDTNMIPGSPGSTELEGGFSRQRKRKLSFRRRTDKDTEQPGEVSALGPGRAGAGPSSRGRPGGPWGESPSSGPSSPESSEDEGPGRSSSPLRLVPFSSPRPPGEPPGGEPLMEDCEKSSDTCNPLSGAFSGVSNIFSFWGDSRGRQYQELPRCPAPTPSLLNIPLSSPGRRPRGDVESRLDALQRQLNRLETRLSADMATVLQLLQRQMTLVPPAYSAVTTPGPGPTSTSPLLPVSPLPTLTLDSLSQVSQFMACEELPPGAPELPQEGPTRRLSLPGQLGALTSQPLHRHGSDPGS
Experiment: hERG channel inhibition, patch clamp on HEK293 cells expressing hERG
Format: cell-based
Settings: human, HEK293 cells expressing hERG, pH 7.4; 1 µM
Where a SMILES comes first, the peptide text is derived from it. [ ]: non-standard residue; d: D form. The star is where a group is joined. d(aIle) = CC[C@H](C)[C@@H](N)C(=O)O; X1 = CC[C@H](C)CCCCC(=O)*; dDab = NCC[C@@H](N)C(=O)O; Dab = NCC[C@H](N)C(=O)O
reported-metric: inhibition at 1 µM
Please report the result as a number followed by the unit.

Query: Consider the compound shown here: CC[C@H](C)CCCCC(=O)NCC(=O)N[C@H](CCN)C(=O)NCC(=O)N[C@H](CO)C(=O)N[C@H](Cc1c[nH]c2ccccc12)C(=O)N[C@@H](CO)C(=O)N[C@@H](CCN)C(=O)N[C@H](CCN)C(=O)N[C@H](C(=O)N[C@@H](CCC(=O)O)C(=O)N[C@H](C(=O)N[C@@H](C(=O)N[C@@H](CO)C(=O)O)[C@@H](C)CC)[C@@H](C)CC)[C@@H](C)CC [Tridecaptin M, tridecaptin M] (X1-G[dDab]G[dS][dW]S[Dab][dDab]IEI[d(aIle)]S-OH) What is its recorded inhibition at 1 µM?
Response: -5.54%
